molecular target: Human IP6K1 (Homo sapiens, UniProt Q92551); construct: GST (N, cleaved yes); made in house; host or cells: C43 E. coli, pGEX-6P-2; test: IP6K1 high-throughput screen of the Sigma LOPAC (ADP-Glo Max, single point); format: biochemical; settings: LOPAC single-point screen, ADP-Glo Max raw signal per well;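 also: final compound concentration 10µM in 5% DMSO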
Sequence (Q92551 whole entry): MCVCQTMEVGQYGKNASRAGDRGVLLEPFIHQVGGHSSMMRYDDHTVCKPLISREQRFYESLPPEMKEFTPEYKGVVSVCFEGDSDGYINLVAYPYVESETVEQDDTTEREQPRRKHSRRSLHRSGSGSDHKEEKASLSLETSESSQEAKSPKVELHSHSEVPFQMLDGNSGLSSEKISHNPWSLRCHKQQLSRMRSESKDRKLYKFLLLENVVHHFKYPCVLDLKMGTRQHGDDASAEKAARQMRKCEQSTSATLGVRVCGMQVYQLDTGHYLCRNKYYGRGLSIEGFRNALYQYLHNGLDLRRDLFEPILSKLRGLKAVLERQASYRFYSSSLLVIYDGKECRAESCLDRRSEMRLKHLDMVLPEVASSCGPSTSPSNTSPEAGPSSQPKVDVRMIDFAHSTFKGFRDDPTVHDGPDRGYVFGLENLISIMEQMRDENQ
Structures can show the parent of a compound that is named as a salt.

{"compound": "COc1ccccc1N1CCN(CCN(C(=O)c2ccc(F)cc2)c2ccccn2)CC1.Cl.Cl [p-MPPF dihydrochloride]", "target under test": "Human IP6K1 (Homo sapiens, UniProt Q92551)", "Raw Signal": 52235}
{"compound": "CCCCCCN(CCCCCC)C(=O)Cc1c(-c2ccc(F)cc2)[nH]c2ccccc12", "target under test": "Human IP6K1 (Homo sapiens, UniProt Q92551)", "Raw Signal": 56591}
{"compound": "NC(=S)c1ccc[n+]([C@@H]2O[C@@H](COP(=O)([O-])OP(=O)(O)OC[C@H]3O[C@@H](n4cnc5c(N)ncnc54)C(OP(=O)([O-])O)[C@H]3O)C(O)C2O)c1.[Na+] (some centres unmarked) [Thio-NADP sodium]", "target under test": "Human IP6K1 (Homo sapiens, UniProt Q92551)", "Raw Signal": 56703}
{"compound": "Cc1cccc(/C=C/c2ccccc2)n1", "target under test": "Human IP6K1 (Homo sapiens, UniProt Q92551)", "Raw Signal": 55669}
{"compound": "C[C@H]1C[C@H]2[C@@H]3CCC4=CC(=O)C=C[C@]4(C)[C@@]3(Cl)[C@@H](O)C[C@]2(C)[C@@]1(O)C(=O)CO", "target under test": "Human IP6K1 (Homo sapiens, UniProt Q92551)", "Raw Signal": 55439}
{"compound": "COc1cc2c(c(OC)c1OC)-c1ccc(OC)c(=O)cc1[C@@H](NC(C)=O)CC2", "target under test": "Human IP6K1 (Homo sapiens, UniProt Q92551)", "Raw Signal": 58343}
{"compound": "COC(=O)C(C)(N)Cc1ccc(O)cc1.Cl (racemic)", "target under test": "Human IP6K1 (Homo sapiens, UniProt Q92551)", "Raw Signal": 52897}
{"compound": "CNC1(C)C2CCC(C2)C1(C)C (centres unmarked) [Mecamylamine hydrochloride]", "target under test": "Human IP6K1 (Homo sapiens, UniProt Q92551)", "Raw Signal": 55214}
